measurement-target: UniProt P23979
Sequence (P23979 24-489): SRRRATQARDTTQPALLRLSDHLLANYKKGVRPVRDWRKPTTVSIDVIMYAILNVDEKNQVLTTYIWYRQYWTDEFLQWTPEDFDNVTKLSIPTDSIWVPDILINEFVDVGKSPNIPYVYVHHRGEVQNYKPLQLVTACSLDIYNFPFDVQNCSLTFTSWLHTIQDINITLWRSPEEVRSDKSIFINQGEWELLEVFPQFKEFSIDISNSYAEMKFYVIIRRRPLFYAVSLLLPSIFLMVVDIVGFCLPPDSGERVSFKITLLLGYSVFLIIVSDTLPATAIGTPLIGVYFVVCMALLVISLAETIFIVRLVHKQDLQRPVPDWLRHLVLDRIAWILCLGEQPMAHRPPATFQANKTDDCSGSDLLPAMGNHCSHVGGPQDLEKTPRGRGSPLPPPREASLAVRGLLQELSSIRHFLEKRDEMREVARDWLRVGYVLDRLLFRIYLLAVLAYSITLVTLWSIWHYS

>  <compound>
Cc1nccn1CC1CCc2c(c3ccccc3n2C)C1=O (stereo not shown) [Ondansetron, ondansetron]

>  <measurement-target>
UniProt P23979

>  <Kd (nM)>
1.6

$$$$

---

measurement-target: α7-nAChR (Homo sapiens, UniProt P36544)
Sequence (P36544 23-502): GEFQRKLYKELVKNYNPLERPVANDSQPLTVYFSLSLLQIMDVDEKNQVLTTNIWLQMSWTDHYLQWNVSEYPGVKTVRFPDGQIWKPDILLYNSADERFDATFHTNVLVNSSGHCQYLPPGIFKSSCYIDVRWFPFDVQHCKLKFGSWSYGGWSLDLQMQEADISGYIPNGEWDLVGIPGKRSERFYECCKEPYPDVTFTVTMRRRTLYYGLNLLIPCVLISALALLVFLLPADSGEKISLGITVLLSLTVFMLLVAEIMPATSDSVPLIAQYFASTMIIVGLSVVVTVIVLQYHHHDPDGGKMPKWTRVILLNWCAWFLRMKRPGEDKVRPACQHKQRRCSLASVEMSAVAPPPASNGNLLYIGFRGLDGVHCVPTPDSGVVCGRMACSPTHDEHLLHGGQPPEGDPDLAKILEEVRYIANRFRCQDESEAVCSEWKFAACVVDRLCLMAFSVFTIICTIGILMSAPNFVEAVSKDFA
condition-summary: read-out: EC50, α7-nAChR (non-CNiFER); potential-sensitive dye, human receptors
value-kind: EC50 (nM)

>  <compound>
Clc1ccc(C2CC3CCC2N3)cn1 (racemic) [(±)-Epibatidine, (±)-epibatidine]

>  <measurement-target>
α7-nAChR (Homo sapiens, UniProt P36544)

>  <observed-measurement>
17

$$$$

---

measurement-target: human α7 nicotinic acetylcholine receptors (Homo sapiens)
procedure-text: cell-based
Format: cell-based
condition-summary: read-out: EC50, α7-nAChR CNiFER
value-kind: EC50 (nM)

>  <compound>
Clc1ccc(C2CC3CCC2N3)cn1 (racemic) [(±)-Epibatidine, (±)-epibatidine]

>  <observed-measurement>
28

$$$$

---

measurement-target: human α7 nicotinic acetylcholine receptors (Homo sapiens)
procedure-text: cell-based
Type: cell-based
condition-summary: read-out: EC50 of agonist curve
value-kind: EC50

>  <molecule>
Clc1ccc(C2CC3CCC2N3)cn1 (racemic) [(±)-Epibatidine, (±)-epibatidine]

>  <observed-measurement>
3.6 nM

$$$$
